Target: Collagenase-3 (MMP-13) (Homo sapiens)
Assay: Collagenase-3 (MMP-13) inhibitory activity, fluorogenic peptide substrate cleavage
Assay type: biochemical
Conditions: read-out: MMP13 IC50
pIC50: −log10 of the molar value.
pIC50 below 6 gives not met; pIC50 at or above it gives met.

QUERY: // inclusive: pIC50 at least 6? input: "Cc1nc2ccc(C(=O)c3ccc(Cl)c(S(N)(=O)=O)c3)cc2[nH]1"
RESULT: not met

QUERY: Form field: pIC50 at least 6? Entry: "NS(=O)(=O)c1cc(C(=O)c2ccc3c(-c4ccc5[nH]ccc5c4)c[nH]c3c2)ccc1Cl"
RESULT: not met

QUERY: Does the reported pIC50 for "CCOC(=O)N1CCc2[nH]c3ccc(C(=O)c4ccc(Cl)c(S(N)(=O)=O)c4)cc3c2C1" fall at or above the 6 mark?
RESULT: not met

QUERY: Dear colleague, could you confirm whether "NS(=O)(=O)c1cc(C(=O)c2ccc(-c3ccc(F)cc3)cc2)ccc1Cl" has pIC50 at or above 6?
RESULT: not met

QUERY: Record "NS(=O)(=O)c1cc(C(=O)c2ccc3cc[nH]c3c2)ccc1Cl" ; criterion: pIC50 no lower than 6. Met?
RESULT: met

QUERY: I'd appreciate it if you could say whether "NS(=O)(=O)c1cc(C(=O)c2ccc3c(c2)CCC3)ccc1Cl" has pIC50 at least equal to 6.
RESULT: not met

QUERY: pIC50 >= 6 for "NS(=O)(=O)c1cc(C(=O)c2ccc(N3CCCCCC3)cc2)ccc1Cl" ?
RESULT: not met

QUERY: Is the recorded value of pIC50 equal to or greater than 6 for this molecule? "NS(=O)(=O)c1cccc(C(=O)c2ccc3cc[nH]c3c2)c1"
RESULT: met

QUERY: Check the entry "CC(C)(C)NC(=O)c1ccc(C(=O)c2ccc(Cl)c(S(N)(=O)=O)c2)cc1" : does pIC50 equal or exceed 6?
RESULT: not met

QUERY: State whether the measured pIC50 reaches 6, counting equality as reaching it, for "NS(=O)(=O)c1cc(C(=O)c2ccc(Nc3ccccc3)cc2)ccc1Cl"
RESULT: not met

QUERY: Test whether the molecule "CC(C)CCOc1ccc(C(=O)c2ccc(Cl)c(S(N)(=O)=O)c2)cc1" records pIC50 of 6 or higher.
RESULT: met

QUERY: Item "NS(=O)(=O)c1cc(C(=O)c2ccc(N3CCCC3)cc2)ccc1Cl" with pIC50 of 6 or above?
RESULT: met

QUERY: Determine whether measured pIC50 meets or exceeds 6 for "NS(=O)(=O)c1cc(C(=O)c2c[nH]c3ccccc23)ccc1Cl"
RESULT: not met

QUERY: Test whether the molecule "NS(=O)(=O)c1cc(C(=O)c2ccc(N3CCOCC3)cc2)ccc1Cl" records pIC50 of 6 or higher.
RESULT: not met

QUERY: Given "CCc1n[nH]c2cc(C(=O)c3ccc(Cl)c(S(N)(=O)=O)c3)ccc12" , state whether its pIC50 is at least 6.
RESULT: met

QUERY: For this molecule, is measured pIC50 6 or higher? "COc1ccc(C(=O)c2ccc(Cl)c(S(N)(=O)=O)c2)cc1"
RESULT: not met

QUERY: Record COc1ccc(C(=O)c2ccc([S+](C)[O-])c(S(N)(=O)=O)c2)cc1 (stereo not shown) ; criterion: pIC50 no lower than 6. Met?
RESULT: not met

QUERY: Say whether "NS(=O)(=O)c1cc(C(=O)c2ccc3c(c2)[nH]c2ccccc23)ccc1Cl" shows pIC50 of 6 or more.
RESULT: not met

QUERY: Answer whether pIC50 of "COc1ccc(C(=O)c2ccc(S(C)(=O)=O)c(S(N)(=O)=O)c2)cc1" is greater than or equal to 6.
RESULT: not met

QUERY: Hi team, for "Cc1cc(-c2c[nH]c3cc(C(=O)c4cccc(S(N)(=O)=O)c4)ccc23)ccn1" , is the recorded pIC50 at or above 6?
RESULT: met

QUERY: Kindly determine if pIC50 recorded for "NS(=O)(=O)c1cc(C(=O)c2ccc3c(-c4ccnc(C5CC5)c4)c[nH]c3c2)ccc1Cl" is above or exactly 6.
RESULT: met

QUERY: Determine whether measured pIC50 meets or exceeds 6 for "NS(=O)(=O)c1cc(C(=O)c2ccc(C#Cc3ccccc3)cc2)ccc1Cl"
RESULT: not met

QUERY: hey, is pIC50 for this one >= 6? NS(=O)(=O)c1cc(C(=O)c2ccc(O)cc2)ccc1Cl [Example 55]
RESULT: not met

QUERY: Quick check, pIC50 >= 6? "NS(=O)(=O)c1cc(C(=O)c2ccc(N3CCC(Cc4ccccc4)CC3)cc2)ccc1Cl"
RESULT: not met

QUERY: Reported pIC50 at or above 6? "CC(=O)Nc1cccc(-c2ccc(C(=O)c3ccc(Cl)c(S(N)(=O)=O)c3)cc2)c1"
RESULT: not met

QUERY: Test whether the molecule "NS(=O)(=O)c1cc(C(=O)c2ccc3ccccc3c2)ccc1Cl" records pIC50 of 6 or higher.
RESULT: not met

QUERY: # check: pIC50 of NS(=O)(=O)c1cc(C(=O)c2ccc(Br)cc2)ccc1Cl [Example 22] is greater than or equal to 6
RESULT: not met

###

Could you please report measured melting point for the items listed next?

QUERY: # input compound: NS(=O)(=O)c1cc(C(=O)c2ccc(-c3cccc(C(F)(F)F)c3)cc2)ccc1Cl [Example 75] ; wanted: its melting point
RESULT: 75 to 77 °C

QUERY: Looking for the measured melting point of C#Cc1ccc(C(=O)c2ccc(Cl)c(S(N)(=O)=O)c2)cc1 [Example 31] , can you help?
RESULT: 147 to 149 °C

QUERY: Please give the measured melting point for this compound: NS(=O)(=O)c1cc(C(=O)c2ccc(C(=O)N3CCCC3)cc2)ccc1Cl [Example 53]
RESULT: 146 to 148 °C

QUERY: Recorded melting point for Nc1cccc(-c2ccc(C(=O)c3ccc(Cl)c(S(N)(=O)=O)c3)cc2)c1 [Example 69] , please?
RESULT: 228 to 230 °C

QUERY: // melting point lookup, key: NS(=O)(=O)c1cc(C(=O)c2ccc(-c3cccnc3)cc2)ccc1Cl [Example 41]
RESULT: 190 to 192 °C

QUERY: Would you mind telling me what melting point value was observed for COc1ccc(C(=O)c2cccc(S(N)(=O)=O)c2)cc1 [Example 1, 3-(4-Methoxy-benzoyl)-benzenesulfonamide] ?
RESULT: 119 to 122 °C

QUERY: Which measured melting point value corresponds to NS(=O)(=O)c1cc(C(=O)c2ccc3[nH]ccc3c2)ccc1Cl [Example 116] ?
RESULT: 65 to 66 °C

QUERY: Entry NS(=O)(=O)c1cc(C(=O)c2ccc(-c3ccc4ccccc4c3)cc2)ccc1Cl [Example 38] : reported melting point = ?
RESULT: 193 to 195 °C

###

Target: Collagenase-3 (MMP-13) (Homo sapiens, UniProt P45452)
Test: Collagenase-3 (MMP-13) inhibitory activity, fluorogenic peptide substrate cleavage
Format: biochemical
Conditions: read-out: MMP13 IC50
Method: Gelatinase (MMP-2) inhibitory activities can be determined as follows: Stock solutions of substrate (MCA-Lys-Pro-Leu-Gly-Leu-Dpa-Ala-Arg-NH2) are prepared in DMSO at a concentration of 1.4 mM. Stock solutions of inhibitors (0.03 μM-3 mM) are also prepared in DMSO. […] The fluorescence changes, as a result of substrate cleavage, are monitored using an excitation wavelength of 325 nm and an emission wavelength of 405 nm. […] Collagenase-3 (MMP-13) inhibitory activity is determined as described above. […]
Each entry falls in a class defined on IC50; the bands are Low: < 2 µM; Mid: ≥ 2 µM and < 4 µM; High: ≥ 4 µM

QUERY: Returns: class label. Input: "NS(=O)(=O)c1cc(C(=O)c2ccc(C(=O)NCCCCc3ccccc3)cc2)ccc1Cl"
RESULT: High

QUERY: Class (by measured IC50) for "NS(=O)(=O)c1cc(C(=O)c2ccc3c(-c4cccnc4)c[nH]c3c2)ccc1Cl"
RESULT: Low

QUERY: Form field 'band' for "CCN(CC)c1ccc(C(=O)c2ccc(Cl)c(S(N)(=O)=O)c2)cc1"
RESULT: High

QUERY: Into which category would you place "COc1ccc(C(=O)c2ccc(Cl)c(S(=O)(=O)NCCc3ccc([N+](=O)[O-])cc3)c2)cc1" ?
RESULT: High

QUERY: Kindly identify the class of NS(=O)(=O)c1cc(C(=O)c2ccc(Br)cc2)ccc1Cl [Example 23] .
RESULT: Low

QUERY: Which category fits this record: "NS(=O)(=O)c1cc(C(=O)c2ccc(C3CCCCC3)cc2)ccc1Cl"
RESULT: High

QUERY: For this compound, which bin applies? "NS(=O)(=O)c1cc(C(=O)c2ccc(C(=O)N3CCCC3)cc2)ccc1Cl"
RESULT: High

QUERY: Quick check: band for "COc1ccc(C(=O)c2ccc(C)c(S(N)(=O)=O)c2)cc1"
RESULT: High

QUERY: For the record "NS(=O)(=O)c1cc(C(=O)c2ccc(N3CCCCC3)cc2)ccc1Cl" , report the class its IC50 corresponds to.
RESULT: Low

QUERY: Hey, which category is "Cc1cccc(C(=O)c2ccc(Cl)c(S(N)(=O)=O)c2)c1" in, do you know?
RESULT: Mid

QUERY: Sort COc1ccc(C(=O)c2cccc(S(N)(=O)=O)c2)cc1 [Example 1, 3-(4-Methoxy-benzoyl)-benzenesulfonamide] into one of the categories.
RESULT: Mid

QUERY: Input "CC(C)c1n[nH]c2cc(C(=O)c3ccc(Cl)c(S(N)(=O)=O)c3)ccc12" ; output its category
RESULT: Mid

QUERY: Consider "NS(=O)(=O)c1cc(C(=O)c2ccc3cc[nH]c3c2)ccc1F" . To which IC50 class does it belong?
RESULT: Low

QUERY: Which bin should I file "NS(=O)(=O)c1cc(C(=O)c2ccc(N3CCC3=O)cc2)ccc1Cl" under?
RESULT: Mid

QUERY: Assign a bin to "COc1ccc(C(=O)c2ccc([N+](=O)[O-])c(S(N)(=O)=O)c2)cc1"
RESULT: Low

QUERY: Category of "COCCCc1cc(-c2c[nH]c3cc(C(=O)c4ccc(Cl)c(S(N)(=O)=O)c4)ccc23)ccn1" :
RESULT: Low

Data credit: patent US20130096105A1
